system: A549 infected with HSV-1; test: cell number in HSV-1-infected wells relative to infected DMSO wells (H2B-RFP signal); higher = more surviving cells (uninfected or antiviral-protected wells give about 200%; low = toxicity); settings: 10 µM; 48 h; MOI: 0.1
Structures can show the parent of a compound that is named as a salt. Over roughly 1,700 compounds, “cell number in HSV-1-infected wells relative to infected DMSO wells (H2B-RFP signal)” has its median near 100; the highest 2% begin near 140. The sample as a whole holds a higher share of the highest values than the screen did.
ENDPOINT_NAME: cell number in HSV-1-infected wells (%)
Numbers only here, please. The scale is %.

Worked cases, cell number in HSV-1-infected wells given:
INSERT INTO results (compound, unit_of_measurement, endpoint_result) VALUES
  ('CC1(C)NC(=O)N(c2ccc([N+](=O)[O-])c(C(F)(F)F)c2)C1=O [Nilutamide]', '%', 150),
  ('CC(=O)O[C@]1(C(C)=O)CC[C@H]2[C@@H]3C=C(Cl)C4=CC(=O)[C@@H]5C[C@@H]5[C@]4(C)[C@H]3CC[C@@]21C [Cyproterone Acetate]', '%', 118),
  ('CN1CCC(OC(c2ccccc2)c2ccccc2)CC1 [Diphenylpyraline HCl]', '%', 98.9),
  ('Cc1nccn1CC1CCc2c(c3ccccc3n2C)C1=O (stereo unspecified) [Ondansetron Hydrochloride Dihydrate]', '%', 76),
  ('CC(=O)O[C@]1(C(C)=O)CC[C@H]2[C@@H]3C=C(C)C4=CC(=O)CC[C@]4(C)[C@H]3CC[C@@]21C [Megestrol Acetate]', '%', 112);

Could you share which cell number in HSV-1-infected wells value was measured for CNC(=O)c1ccc(N2C(=S)N(c3ccc(C#N)c(C(F)(F)F)c3)C(=O)C2(C)C)cc1F [Enzalutamide (MDV3100)] ? 95.9

State the recorded cell number in HSV-1-infected wells for this entry: CC(=O)O[C@]1(C(C)=O)CC[C@H]2[C@@H]3C=C(Cl)C4=CC(=O)CC[C@]4(C)[C@H]3CC[C@@]21C [Chlormadinone acetate] 148

Tell me the measured cell number in HSV-1-infected wells of Nc1cc(C(Cl)=C(Cl)Cl)c(S(N)(=O)=O)cc1S(N)(=O)=O [Clorsulon] , please. 114

For the compound shown here, CC(C)C(=O)Nc1ccc([N+](=O)[O-])c(C(F)(F)F)c1 [Flutamide] , give the reported cell number in HSV-1-infected wells. 110

// cell number in HSV-1-infected wells lookup, key: C[C@H](CCC(=O)O)[C@H]1CC[C@H]2[C@@H]3CC[C@@H]4C[C@H](O)CC[C@]4(C)[C@H]3C[C@H](O)[C@]12C [Deoxycholic acid] 109

Please look up its cell number in HSV-1-infected wells: Nc1ccc(/N=N/c2ccccc2)c(N)n1 [Phenazopyridine HCl] 121

---

test system: A549 infected with HSV-1; assay: cell number in HSV-1-infected wells relative to infected DMSO wells (H2B-RFP signal); higher = more surviving cells (uninfected or antiviral-protected wells give about 200%; low = toxicity); settings: 10 µM; 48 h; MOI: 0.1
Where a name gives a salt, the structure may show the parent alone. Over roughly 1,700 compounds, “cell number in HSV-1-infected wells relative to infected DMSO wells (H2B-RFP signal)” has its median near 100; the highest 2% begin near 140. Only a selection was taken, and the highest values are over-represented in it overall.
Threshold check on cell number in HSV-1-infected wells: at or above 90% gives t, strictly below gives f.

I'd appreciate it if you could say whether CCC[C@@H]1C[C@@H](C(=O)N[C@@H]([C@H]2O[C@H](SC)[C@H](O)[C@@H](O)[C@H]2O)[C@@H](C)O)N(C)C1 [Lincomycin HCl] has cell number in HSV-1-infected wells at least equal to 90%. t

Is cell number in HSV-1-infected wells at least 90%? Consider CCn1c(=O)c(-c2cc[nH]n2)cc2c(C)nc(N)nc21 f

Item C[C@]12CC[C@@H]3c4ccc(O)cc4C[C@@H](CCCCCCCCC[S+]([O-])CCCC(F)(F)C(F)(F)F)[C@H]3[C@@H]1CC[C@@H]2O (stereo partly specified) [Fulvestrant] with cell number in HSV-1-infected wells of 90% or above? f

Is the recorded value of cell number in HSV-1-infected wells equal to or greater than 90% for this compound? Cc1c(O)cccc1C(=O)N[C@@H](CSc1ccccc1)[C@H](O)CN1C[C@H]2CCCC[C@H]2C[C@H]1C(=O)NC(C)(C)C [Nelfinavir Mesylate] t

I'd appreciate it if you could say whether CC(OC(=O)OC1CCCCC1)OC(=O)C1=C(CSc2nnnn2CCN(C)C)CS[C@@H]2[C@H](NC(=O)Cc3csc(N)n3)C(=O)N12 (stereo partly specified) [Cefotiam Hexetil Hydrochloride] has cell number in HSV-1-infected wells at least equal to 90%. f

Please check the record C[C@@H](O)[C@H]1C(=O)N2C(C(=O)O)=C(S[C@@H]3CN[C@H](CNS(N)(=O)=O)C3)[C@H](C)[C@H]12 [Doripenem] and state if its cell number in HSV-1-infected wells is at or above 90%. t

State whether the measured cell number in HSV-1-infected wells reaches 90%, counting equality as reaching it, for Cc1cn(-c2cc(NC(=O)c3ccc(C)c(Nc4nccc(-c5cnccn5)n4)c3)cc(C(F)(F)F)c2)cn1 [Radotinib] f

Please indicate if the recorded cell number in HSV-1-infected wells for NCCNc1ccc(NCCN)c2c1C(=O)c1ccncc1C2=O [Pixantrone Maleate] meets or exceeds 90%. f

Quick check, cell number in HSV-1-infected wells >= 90%? CCCN1CCCC[C@H]1C(=O)Nc1c(C)cccc1C [Ropivacaine] t

---

tested on: A549 infected with HSV-1; assay: cell number in HSV-1-infected wells relative to infected DMSO wells (H2B-RFP signal); higher = more surviving cells (uninfected or antiviral-protected wells give about 200%; low = toxicity); conditions: 10 µM; 48 h; MOI: 0.1
Where a name gives a salt, the structure may show the parent alone. In all, about 1,700 compounds were measured (“cell number in HSV-1-infected wells relative to infected DMSO wells (H2B-RFP signal)”: median about 100, highest 2% from about 140 on). The sample as a whole holds a higher share of the highest values than the screen did.
ENDPOINT_NAME: cell number in HSV-1-infected wells (%)
The response must be a number in % with no trailing unit.

INSERT INTO measurements (compound, endpoint_result) VALUES
  ('O=C(O)CCCC[C@@H]1CCSS1 (racemic)', 134),
  ('COc1cc(NC(C)CCCN)c2ncccc2c1 (stereo not drawn) [Primaquine Diphosphate]', 118),
  ('CC1(C)S[C@@H]2[C@H](NC(=O)[C@H](C(=O)O)c3ccsc3)C(=O)N2[C@H]1C(=O)O [Ticarcillin sodium]', 95.4),
  ('CC(C)(Oc1ccc(Cl)cc1)C(=O)OCCOC(=O)c1cccnc1 [Etofibrate]', 129),
  ('O=C1/C(=C2\Nc3ccc(S(=O)(=O)O)cc3C2=O)Nc2ccc(S(=O)(=O)O)cc21', 126);

Need cell number in HSV-1-infected wells, item NC(=O)c1cccc2cn(-c3ccc([C@@H]4CCCNC4)cc3)nc12 [Niraparib (MK-4827) tosylate] 71.7

I'd like to know its cell number in HSV-1-infected wells. The compound in question is C=C(c1ccc(C(=O)O)cc1)c1cc2c(cc1C)C(C)(C)CCC2(C)C 85.7

Which measured cell number in HSV-1-infected wells value corresponds to O=NN(CCCl)C(=O)NC1CCCCC1 ? 84.7

Find the recorded cell number in HSV-1-infected wells belonging to CN(C)CCCN1c2ccccc2CCc2ccccc21 [Imipramine HCl] and report it. 134

Please report the recorded cell number in HSV-1-infected wells for COc1ccc(NC(=O)c2ccc(C(=N)N(C)C)cc2)c(C(=O)Nc2ccc(Cl)cn2)c1 [Betrixaban] . 150

Can you share its cell number in HSV-1-infected wells? I mean this compound: Nc1nc(Cl)nc2c1ncn2[C@H]1C[C@H](O)[C@@H](CO)O1 42.1

---

Catalogue of cell number in HSV-1-infected wells values
test system: A549 infected with HSV-1; test: cell number in HSV-1-infected wells relative to infected DMSO wells (H2B-RFP signal); higher = more surviving cells (uninfected or antiviral-protected wells give about 200%; low = toxicity); details: 10 µM; 48 h; MOI: 0.1
Structures can show the parent of a compound that is named as a salt. The full ranking holds about 1,700 compounds; the median of “cell number in HSV-1-infected wells relative to infected DMSO wells (H2B-RFP signal)” is about 100, and the highest 2% start at about 140. Shown is part of a subset that was picked to be rich in the highest values.

INSERT INTO measurements (compound, endpoint_result) VALUES
  ('O=C(O)c1cccnc1', '93.2%'),
  ('OCc1cc([C@@H](O)CNCCCCCCOCCOCc2c(Cl)cccc2Cl)ccc1O [Vilanterol Trifenate]', '25.9%');

cell number in HSV-1-infected wells lookup needed for CCOc1ccccc1OCCN[C@H](C)Cc1ccc(OC)c(S(N)(=O)=O)c1 [Tamsulosin hydrochloride] , thanks. 132%

# query: cell number in HSV-1-infected wells of entry COc1cc(C2Oc3cc([C@H]4Oc5cc(O)cc(O)c5C(=O)[C@@H]4O)ccc3OC2CO)ccc1O (some centres undefined) 95.4%
